The origin of these recorded values is ChEMBL document CHEMBL1201862.

Test system: 786-0
assay_procedure: NCI tumour cell line growth inhibition, 48 h
Active and inactive are the calls of the source. Cut-off read from the data, not from the text of the source: active = GI50 up to about 1.1 µM and inactive = higher.
The following compounds are shown together with reported GI50 values.

Reference set (5 entries):
State the recorded GI50 for this entry: CC(CNC(N)=O)NC(N)=O (stereo unspecified) > 100 µM (inactive)

Then what about the compound CCOC(=O)C(=[N+]=[N-])C(=O)C1(C(=O)OCC)CCN(C(=O)c2ccccc2)C1=O (stereo unspecified) ? > 100 µM (inactive)

Query "NC(=S)N/N=C/C(=C/Nc1ccccc1)[N+](=O)[O-]" next > 100 µM (inactive)

Try this compound next: O=[N+]([O-])c1ccc(O)c(/C=N/CC2CCCN3CCCCC23)c1 (stereo unspecified) 38.8 µM (inactive)

Please give the result for "CCCCNc1nc2ccccc2c2c1ncn2CC(C)C" too. > 100 µM (inactive)

Below: the item to evaluate.
Returns the measured GI50 for the input compound. Input: "Nc1nc(-c2ccccc2)cc(-c2ccccc2O)n1" 48.6 µM (inactive)
